Reference for the values: PubChem BioAssay (NCATS)

# measurement_description: Stat Signaling Pathway (AID 446);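 further: ME-180 cervical cancer cells given 40 pM IL-6 alongside compound; SIE-controlled beta-lactamase reporter measured as 460/530 nm FRET emission ratio; on the % scale 0 is the no-effect control and ±100 the full control effect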
# particulars: ME-180 (cervical carcinoma) SIE beta-lactamase reporter, IL-6 stimulated, 5 h; at 17.2 µM (top of the series) unless noted
Records with an inconclusive call do not appear.
quantity: activity, negative = inhibition (%)
Respond numerically; units are % and should not be typed.

| molecule | quantity | unit_descriptor | endpoint_result |
| --- | --- | --- | --- |
| O=C(c1ccccc1)c1cc(-c2ccccc2)on1 | activity, negative = inhibition | % | -7.84 |

Could you share which activity, negative = inhibition value was measured for CCOC(=O)COn1c(=O)c(-c2ccco2)[n+]([O-])c2ccccc21 ?
12.3

Same again, this time with O=C1C(=O)N(Cc2cccnc2)C(c2ccccn2)/C1=C(/O)c1ccc(Br)cc1 (stereo not drawn)
-10.5

Same again, this time with CC(=O)Nc1cnc2ccccc2n1
7.01

Same again, this time with COC(=O)c1ccc(=O)n(Cc2ccco2)c1
-2.94

Same again, this time with c1ccc(CSc2nnc(SCc3ccccn3)s2)nc1
-4.62

Same again, this time with CCOc1ccc(NC(=O)CSC2=C(C#N)C(c3ccc4c(c3)OCO4)CC(=O)N2)cc1 (stereo not drawn)
-3.62

Same again, this time with CCc1nc2n[nH]c(N)c2c2c1CCCC2
-2.34

###

# study_system: Cytochrome P450 2C19 (Homo sapiens)
# measurement_description: qHTS Assay for Inhibitors and Substrates of Cytochrome P450 2C19 (AID 899); further: nearly all actives have a fitted effect of over 60% in size
# particulars: recombinant CYP2C19, luciferin-H EGE luminescence; series mostly up to 57.1 µM
Results filed as inconclusive are left out. Calls of active or inactive are those of the source. Calls come from the whole dose curve; as a rule, active = well fitted inhibition curve with a large enough effect; inconclusive = small, poorly fitted or top-dose-only effect; inactive = no such curve, though single readings can be large or run the other way.
Response enum: yes (1) (active), no (0) (inactive)

| compound | class_assignment |
| --- | --- |
| COC(=O)[C@@]1(Cc2ccccc2)[C@H]2c3cc(C(=O)N4CCCC4)n(Cc4ccc(C)o4)c3C[C@H]2CN1C(=O)c1ccccc1 | yes (1) |

Give the logged outcome of this assay for the following compound: O=c1c(O)c(-c2ccccc2)oc2cc(O)cc(O)c12
yes (1)

Same again, this time with CC[C@H]1C(=O)OC[C@@H]1Cc1cncn1C
no (0)

Same again, this time with COC(=O)[C@@]1(Cc2ccccc2)[C@H]2c3cc(C(=O)N4CCCC4)n(CC4CC4)c3C[C@H]2CN1C(=O)c1ccccc1
yes (1)

###

# measurement_description: Cell Viability - Renal Proximal Tubule (AID 545);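 further: cells exposed to compound for 40 hours; 0% = DMSO only and -100% = 100 µM tamoxifen; nearly all actives have a fitted effect of over 40% in size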
# particulars: renal proximal tubule cells viability, primary cells of rat origin
Records with an inconclusive call do not appear. Activity calls are given as the source filed them. The call rests on the fitted dose curve; in most records, active means well fitted cell-killing curve with a large enough effect; inconclusive means small, poorly fitted or top-dose-only effect; inactive means flat fitted curve, though single readings scatter.

| compound | outcome |
| --- | --- |
| c1ccc2c(c1)ccc1cc3c(ccc4ccccc43)cc12 | inactive |
| CN1[C@H]2CC(OC(=O)[C@H](CO)c3ccccc3)C[C@H]1[C@H]1O[C@H]12 (stereo partly drawn) | inactive |
| Nc1ccc2cc3ccccc3cc2c1 | inactive |

###

# Test system: Dd2
# measurement_description: qHTS profiling for inhibitors of Plasmodium falciparum proliferation (AID 504749); further: nearly all actives have a fitted effect of over 60% in size
# particulars: P. falciparum in erythrocytes, SYBR Green DNA, 72 h; series mostly up to 28.7 µM
# Description: NIH National Institute of Allergy and Infectious Diseases [NIAID] NIH Chemical Genomics Center [NCGC] […] Because mature erythrocytes lack DNA, only Plasmodium-derived DNA is detected. NCGC Assay Protocol Summary: The SYBR Green viability assay was adapted from a method described previously (Plouffe et al., 2008). […] The following morning, fluorescence intensity at 485(14) nm excitation and 535(25) nm emission wavelengths was measured on an EnVision (Perkin Elmer) plate reader. […]
Results filed as inconclusive are left out. Active and inactive are the calls of the source. The call rests on the fitted dose curve; in most records, active means well fitted inhibition curve with a large enough effect; inconclusive means small, poorly fitted or top-dose-only effect; inactive means flat fitted curve, though single readings scatter.
Response enum: class 1 (active), class 0 (inactive)

| molecule | class_assignment |
| --- | --- |
| COC1CC2CCC(C)[C@](O)(O2)C(=O)C(=O)N2CCCCC2C(=O)OC(C(C)CC2CCC(O)C(OC)C2)CC(=O)C(C)/C=C(/C)C(O)C(OC)C(=O)C(C)CC(C)C=CC=C/C=C\1C (stereo partly specified) | class 1 |
| CCCCCOC(=O)Nc1nc(=O)n(C2O[C@H](C)[C@@H](O)[C@@H]2O)cc1F (stereo partly specified) | class 0 |
| COc1cccc(OC)c1C(=O)NC1C(=O)N2C1SC(C)(C)C2C(=O)O (stereo unspecified) | class 0 |
| CCCCCCCCCCCC(=O)OCC(O)C1OCC(O)C1O (stereo unspecified) | class 0 |
| CCCCC/C(C=O)=C/c1ccccc1 | class 0 |

Give the logged outcome of this assay for the following molecule: NC(=O)NC(CCC(=O)O)C(=O)O (stereo unspecified)
class 0

Same again, this time with CCN1CCN(C(=O)NC(C(=O)NC2C(=O)N3C(C(=O)O)=C(CSc4nnnn4C)CSC23)c2ccc(O)cc2)C(=O)C1=O (stereo unspecified)
class 0

Same again, this time with NC(=O)c1ncn(C2OC(CO)C(O)C2O)c1N (stereo unspecified)
class 0

Same again, this time with CC[C@H](C)[C@H]1O[C@]2(CC[C@@H]1C)C[C@@H]1C[C@@H](C/C=C(\C)[C@H](O[C@@H]3C[C@H](OC)[C@H](O[C@@H]4C[C@H](OC)[C@@H](O)[C@H](C)O4)[C@H](C)O3)[C@@H](C)/C=C/C=C3\CO[C@@H]4[C@H](O)C(C)=C[C@@H](C(=O)O1)[C@]34O)O2
class 1

Same again, this time with CO[C@H]1OC2O[C@@]3(C)CC[C@H]4[C@H](C)CC[C@@H]([C@H]1C)[C@@]24OO3 (stereo partly specified)
class 1

Same again, this time with C/C1=C2/[N-]C(C(CC(N)=O)[C@@]2(C)CCC(=O)NCC(C)OP(=O)([O-])O[C@H]2[C@@H](O)[C@@H](n3cnc4cc(C)c(C)cc43)O[C@@H]2CO)[C@]2(C)N=C(/C(C)=C3N=C(/C=C4N=C1C(CCC(N)=O)C\4(C)C)[C@@H](CCC(N)=O)[C@]\3(C)CC(N)=O)[C@@H](CCC(N)=O)[C@]2(C)CC(N)=O.CC(=O)O.[Co] (stereo partly specified)
class 0
